tgt: Arginase-2, mitochondrial (Homo sapiens) (UniProt P78540)
Sequence (P78540 whole entry): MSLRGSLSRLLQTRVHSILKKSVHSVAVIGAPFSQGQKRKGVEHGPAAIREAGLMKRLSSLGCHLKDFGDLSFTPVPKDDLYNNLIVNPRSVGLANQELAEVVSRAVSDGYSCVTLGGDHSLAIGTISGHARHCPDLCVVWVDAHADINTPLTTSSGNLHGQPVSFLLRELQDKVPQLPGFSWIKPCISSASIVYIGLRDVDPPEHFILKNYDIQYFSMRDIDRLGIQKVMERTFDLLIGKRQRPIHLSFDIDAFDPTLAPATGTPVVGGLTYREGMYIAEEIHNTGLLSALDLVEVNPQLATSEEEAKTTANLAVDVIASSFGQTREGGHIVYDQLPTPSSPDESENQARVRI
protocol_summary: in vitro enzyme assay to detect the production of urea directly proportional to the activity of Arginase II; further: in the data most compounds retested in dose-response had high values
Assay type: functional
Set-up: scale not given: direction of the effect not stated beside the values
test_parameters: 33.3 µM
# Lookup of reported Percent Effect keyed by entry
Give the value in % but do not write % after it.

Use the examples below as a reference point.
compound | Percent Effect / %
Cn1ncc2c(=O)[nH]c(CN3CCCC3CC3CCCCC3)nc21 (stereo not drawn) | 0.719
O=C(c1ccc(F)c(Cl)c1)N1C[C@@H]2CC[C@H](C1)N(Cc1ccccc1)C2 | 1.6
Cc1cccc(-c2noc(CN3CCC(N4CCNC4=O)CC3)n2)c1 | -1.78

Exercise: Find Percent Effect for O=C(Cc1ccc2c(c1)OCO2)N1CCN(c2cnccn2)CC1 on Arginase-2, mitochondrial (Homo sapiens) (UniProt P78540) and write it down.
Key: 4.21

Exercise: Find Percent Effect for Cn1nccc1C(=O)N1CCOC(Cc2cccnc2)C1 (stereo not drawn) on Arginase-2, mitochondrial (Homo sapiens) (UniProt P78540) and write it down.
Key: -3.03

Exercise: Find Percent Effect for O=C(NCC(F)(F)F)NC1CCCc2c1cnn2CCO (stereo not drawn) on Arginase-2, mitochondrial (Homo sapiens) (UniProt P78540) and write it down.
Key: 12.5

Exercise: Find Percent Effect for O=C(O)[C@@H]1CN(C(=O)c2ccc3[nH]nnc3c2)C[C@H]1c1cccc(F)c1 on Arginase-2, mitochondrial (Homo sapiens) (UniProt P78540) and write it down.
Key: -3.99

Exercise: Find Percent Effect for c1ccc(-c2cc(CN3CCC(c4ccn[nH]4)CC3)on2)cc1 on Arginase-2, mitochondrial (Homo sapiens) (UniProt P78540) and write it down.
Key: -0.952

Exercise: Find Percent Effect for COCc1nc(C(=O)N2CCCCC2Cn2cc(C)cn2)cs1 (stereo not drawn) on Arginase-2, mitochondrial (Homo sapiens) (UniProt P78540) and write it down.
Key: -1.47

Exercise: Find Percent Effect for CCc1noc(C(C)N2CCC(C(=O)Nc3cnn(CC)c3)CC2)n1 (stereo not drawn) on Arginase-2, mitochondrial (Homo sapiens) (UniProt P78540) and write it down.
Key: 2.37

Exercise: Find Percent Effect for CN1C(=O)C(c2ccccc2)CC12CCN(CCOCCO)CC2 (stereo not drawn) on Arginase-2, mitochondrial (Homo sapiens) (UniProt P78540) and write it down.
Key: 3.12

Exercise: Find Percent Effect for CCN(Cc1nc2c(cnn2C)c(=O)[nH]1)c1ccc(OC)c(OC)c1 on Arginase-2, mitochondrial (Homo sapiens) (UniProt P78540) and write it down.
Key: -2.8

Exercise: Find Percent Effect for Cc1nc(C)c2c(n1)CCN(C(=O)CC1CC1)CC2 on Arginase-2, mitochondrial (Homo sapiens) (UniProt P78540) and write it down.
Key: 2.87

Exercise: Find Percent Effect for CCc1ccc(S(=O)(=O)Nc2cc(C(=O)O)c(F)cc2F)s1 on Arginase-2, mitochondrial (Homo sapiens) (UniProt P78540) and write it down.
Key: 1.08

Exercise: Find Percent Effect for Cc1ccoc1C(=O)N1C[C@@H]2[C@@H](C1)OCC(=O)N2Cc1cccnc1 on Arginase-2, mitochondrial (Homo sapiens) (UniProt P78540) and write it down.
Key: 3.23

Exercise: Find Percent Effect for CCc1ccc(CN2CC[C@H]3C[C@H](c4nnc(C)[nH]4)O[C@@H]3C2)o1 on Arginase-2, mitochondrial (Homo sapiens) (UniProt P78540) and write it down.
Key: -6.79

Exercise: Find Percent Effect for CCOC(C)c1nc(CN2CCNCC2)cs1 (stereo not drawn) on Arginase-2, mitochondrial (Homo sapiens) (UniProt P78540) and write it down.
Key: -5.24

Exercise: Find Percent Effect for Cc1cc(-c2cnc(N3CCNC(=O)C3)nc2-c2cccnc2C)on1 on Arginase-2, mitochondrial (Homo sapiens) (UniProt P78540) and write it down.
Key: -2.1

Exercise: Find Percent Effect for O=C1CC2(CCN(S(=O)(=O)C3CC3)C2)CN1c1cncnc1 (stereo not drawn) on Arginase-2, mitochondrial (Homo sapiens) (UniProt P78540) and write it down.
Key: -50.7

Exercise: Find Percent Effect for CC1CCc2nc(O)c(C(=O)NCCN(C)C)cc2C1 (stereo not drawn) on Arginase-2, mitochondrial (Homo sapiens) (UniProt P78540) and write it down.
Key: -6.51

Exercise: Find Percent Effect for COCc1cccc(CNCc2c(C)nn(C)c2N(C)C)c1 on Arginase-2, mitochondrial (Homo sapiens) (UniProt P78540) and write it down.
Key: -4.01

Exercise: Find Percent Effect for N#Cc1ccc(CN2CCN(C(=O)C3CCC3)[C@@H]3CS(=O)(=O)C[C@@H]32)cc1 on Arginase-2, mitochondrial (Homo sapiens) (UniProt P78540) and write it down.
Key: -20.7

Exercise: Find Percent Effect for CCS(=O)(=O)c1ccccc1N1CCC(NC(=O)NC2CCCC2)CC1 on Arginase-2, mitochondrial (Homo sapiens) (UniProt P78540) and write it down.
Key: -3.14

----------
tgt: Sialic acid-binding Ig-like lectin 9 (Homo sapiens)
protocol_summary: Hs-Siglec9 ALPHAscreen SOP 20170721
Set-up: scale not given: direction of the effect not stated beside the values
test_parameters: 10 µM
observable: Percent Effect (%)
Give the value in % but do not write % after it.

Use the examples below as a reference point.
compound | tgt | Percent Effect (%)
CN1C(=O)C(c2cccnc2)CC12CCN(C(=O)c1cccn1C)CC2 (configuration not stated) | Sialic acid-binding Ig-like lectin 9 (Homo sapiens) | 0.0913
NC(=O)c1ccc(NC(=O)CCN2CCCC(N3CCCC3)C2)cc1 (configuration not stated) | Sialic acid-binding Ig-like lectin 9 (Homo sapiens) | 16.5
Cc1ccccc1C1(CNc2nnc(C)c(C)c2C#N)CCOCC1 | Sialic acid-binding Ig-like lectin 9 (Homo sapiens) | 2.86

Exercise: Note down Percent Effect recorded for CC(C)(C)c1cnc(CN2CCC[C@H]2CO)o1
Key: 12.3

----------
Tested on: Trypanosoma cruzi
protocol_summary: Trypanosoma cruzi phosphomannomutase and mannose-1-phosphate guanylyltransferase assay
Format: functional
Design: scale not given: direction of the effect not stated beside the values
test_parameters: 10 µM
observable: Percent Effect (%)
Give the value in % but do not write % after it.

compound | Percent Effect, %
CN(C)c1ccc(CCNC(=O)C2CCC(=O)N(C3CCCC3)C2)cc1 (stereo not drawn) | -2.04
Cc1ccc2ncnc(N3CCOCC3c3c(C)nn(C)c3C)c2c1 (stereo not drawn) | -0.487
Cc1ccc2c(ccn2CCC(=O)NC[C@@H]2CCCN3CCCC[C@H]23)c1 | 4.71
CCc1nc(CN(C)C2CCN(Cc3cnc(C)cn3)C2)no1 (stereo not drawn) | 5.38
Cc1noc(C)c1-c1cncc(C2CCCN2Cc2ccncc2)n1 (stereo not drawn) | 0.79

Now look at this one.
Exercise: Note down Percent Effect recorded for CCn1cnnc1CNC(=O)N1CCN(Cc2ccccc2)CC1
Key: 6.95

----------
tgt: Tyrosyl-tRNA synthetase, putative (Trypanosoma cruzi (strain CL Brener))
Sequence (whole entry): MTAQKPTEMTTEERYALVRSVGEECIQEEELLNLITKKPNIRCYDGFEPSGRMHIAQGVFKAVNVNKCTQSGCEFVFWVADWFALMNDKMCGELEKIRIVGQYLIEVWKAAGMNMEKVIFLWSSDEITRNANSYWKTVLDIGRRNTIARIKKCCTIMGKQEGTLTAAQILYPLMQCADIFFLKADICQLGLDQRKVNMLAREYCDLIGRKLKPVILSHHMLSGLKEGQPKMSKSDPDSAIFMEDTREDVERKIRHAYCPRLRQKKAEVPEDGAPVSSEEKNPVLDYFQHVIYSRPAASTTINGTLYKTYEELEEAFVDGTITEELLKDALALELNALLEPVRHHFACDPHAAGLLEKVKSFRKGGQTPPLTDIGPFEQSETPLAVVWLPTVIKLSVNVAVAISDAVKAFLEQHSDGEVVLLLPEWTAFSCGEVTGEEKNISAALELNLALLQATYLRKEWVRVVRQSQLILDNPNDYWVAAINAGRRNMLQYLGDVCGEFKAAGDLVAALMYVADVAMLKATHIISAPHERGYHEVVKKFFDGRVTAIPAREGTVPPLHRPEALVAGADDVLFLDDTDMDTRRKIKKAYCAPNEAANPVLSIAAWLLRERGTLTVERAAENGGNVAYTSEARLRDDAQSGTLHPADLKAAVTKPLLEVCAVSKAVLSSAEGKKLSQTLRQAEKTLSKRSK
protocol_summary: Trypanosoma cruzi tyrosyl tRNA synthetase (TcYRS) SOP
Format: functional
Set-up: scale not given: direction of the effect not stated beside the values
test_parameters: 30 µM
# Lookup of reported Percent Effect keyed by entry
# output: numeric value plus its unit

Use the examples below as a reference point.
compound | recorded_measurement
O=C(Cn1cccn1)NCC1(c2ccccc2)CC1 | -2.35%
Clc1ccc2cccnc2c1CN1CCCC(Cn2cncn2)C1 (configuration not stated) | 13.4%
CC1=N[C@@]2(CC[C@@H]3CN(S(=O)(=O)CC(C)C)C[C@@H]32)C(=O)N1CC(C)C | 10.3%

Now look at this one.
Exercise: Note down Percent Effect recorded for CCc1nnc2n1CCN(Cc1ccc3c(c1)OCCO3)C2
Key: 13.4%
